biological target: HIS-TGFβR1 T204D (Homo sapiens (Human), UniProt P36897, T204D); test: HTRF probe-displacement assay, HIS-TGFβR1 T204D; settings: 1 hour at room temperature
Sequence (P36897 34-503 T204D): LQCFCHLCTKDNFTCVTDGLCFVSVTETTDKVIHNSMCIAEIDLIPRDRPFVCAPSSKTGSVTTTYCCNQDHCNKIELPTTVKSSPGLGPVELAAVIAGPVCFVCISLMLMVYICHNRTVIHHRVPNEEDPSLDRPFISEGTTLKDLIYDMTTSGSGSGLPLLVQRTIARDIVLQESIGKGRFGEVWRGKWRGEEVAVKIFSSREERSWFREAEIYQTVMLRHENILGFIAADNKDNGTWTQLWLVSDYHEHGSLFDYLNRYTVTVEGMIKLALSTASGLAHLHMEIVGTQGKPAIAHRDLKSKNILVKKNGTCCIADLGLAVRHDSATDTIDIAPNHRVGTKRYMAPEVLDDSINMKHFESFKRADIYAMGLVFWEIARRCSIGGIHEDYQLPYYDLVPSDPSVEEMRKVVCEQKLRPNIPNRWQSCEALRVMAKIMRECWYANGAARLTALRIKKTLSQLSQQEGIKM
endpoint-name: pIC50
On this scale, pIC50 is minus log10 of a concentration expressed in M (mol/L).

Use the examples below as a reference point.
sample-smiles | pIC50
COc1cccc(-c2nc(Nc3ccncc3N)c3cccn3n2)n1 | 7.70
COc1cccc(-c2nc(Nc3ccncc3F)c3cc(CCCCN4CCN(C)CC4)cn3n2)n1 | 5.66
Cc1cccc(-c2nc(Nc3ccncc3F)c3c(CN4CCC(F)(F)CC4)ccn3n2)n1 | 9.60

## Input Identify pIC50 associated with the compound O=C(N[C@@H]1CCCC[C@H]1O)c1cnccc1Nc1nc(-c2cccc(C(F)F)n2)nn2cccc12
## Output 6.42

## Input Please report pIC50 for the following compound: O=C(c1cnccc1Nc1nc(-c2cccc(C(F)F)n2)nn2cccc12)N1CCCC1
## Output 7.49

Origin of values: patent US10336761B2
